These measurements were taken from patent US10052331B2.

System: primary human fibroblasts derived from IPF patients (LL29 cells)
Experimental details: Inhibition of fibrotic process: αSMA staining in TGF-β1-treated primary human fibroblasts from IPF patients (LL29 cells)
Assay type: cell-based
Experimental context: Fibroblast, 96 h, LL29 cells treated with TGF-β1 (20 ng/mL), 4 days, 11-point dose-response from 10 μM to 1.87 nM, read-out: Inhibition of fibrosis EC50
pEC50: −log10 of the molar value.
In this section, each of the compounds is paired with its reported pEC50.

A selection of reference data follows.
Cc1ccncc1-c1cc2c(-c3nc4c(-c5ccsc5)cncc4[nH]3)n[nH]c2cn1 [Compound 239]; ≥ 8.05
Fc1ccc(-c2cncc3[nH]c(-c4n[nH]c5cnc(-c6cncc(CN7CCCC7)c6)cc45)nc23)s1 [Compound 326]; ≥ 8.05

API: the following record is the query input.
Task item: Kindly indicate its recorded pEC50. Item: c1cncc(-c2cncc3[nH]c(-c4n[nH]c5cnc(-c6cncc(CN7CCCCC7)c6)cc45)nc23)c1 [Compound 93]
Reply: ≤ 5.00
